target: Human GPR40 (Homo sapiens); test: Inositol Phosphate Turnover (IP1) Assay 2 (HEK cells stably expressing human GPR40, CisBio IP-One kit); type: cell-based; parameters: expressed in transfected cells; host or cells: HEK cells stably expressing the aequorin reporter; details: HEK cells stably expressing human GPR40, 384-well
Sequence (O14842 whole entry): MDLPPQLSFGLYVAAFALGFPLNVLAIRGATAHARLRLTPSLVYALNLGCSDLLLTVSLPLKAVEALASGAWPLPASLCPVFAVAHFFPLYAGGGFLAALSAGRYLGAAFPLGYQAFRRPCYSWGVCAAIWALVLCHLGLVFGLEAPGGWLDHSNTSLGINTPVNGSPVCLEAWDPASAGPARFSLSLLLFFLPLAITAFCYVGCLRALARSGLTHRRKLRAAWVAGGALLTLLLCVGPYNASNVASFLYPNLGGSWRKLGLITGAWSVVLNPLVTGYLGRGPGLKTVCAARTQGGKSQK
assay-endpoint: EC50 (nM)

// solved cases for EC50 follow
Cc1cc(OC[C@H]2C[C@](O)(CO)C2)cc(C)c1-c1cc(COc2cc3c(cn2)[C@H]2[C@@H](C3)[C@@H]2C(=O)O)c(F)cc1F (single isomer, unassigned) = 1.6
Cc1cc(O[C@H]2C[C@H](S(C)(=O)=O)C2)cc(C)c1-c1cc(COc2cc3c(cn2)[C@H]2[C@@H](C3)[C@@H]2C(=O)O)c(F)cc1F = 1.2
Cc1cc(OC[C@H]2C[C@@](O)(CO)C2)cc(C)c1-c1cc(COc2cc3c(cn2)[C@H]2[C@@H](C3)[C@@H]2C(=O)O)c(F)cc1F (single isomer, unassigned) = 1.9
O=C(O)[C@H]1[C@@H]2Cc3cc(OCc4cc(-c5ccc(OC[C@H]6C[C@](O)(CO)C6)cc5Cl)c(F)cc4F)ncc3[C@@H]21 (single isomer, unassigned) = 1.3
Cc1cc(OC2CC(C(C)(O)CO)C2)cc(C)c1-c1cc(COc2cc3c(cn2)C2C(C3)C2C(=O)O)c(F)cc1F (single isomer, unassigned) [Compound-21] = 1

[A] Cc1nc(OC[C@H]2C[C@@](C)(O)C2)ccc1-c1cc(COc2cc3c(cn2)[C@H]2[C@@H](C3)[C@@H]2C(=O)O)c(F)cc1C(F)(F)F
[B] Cc1nc(OC2CC(S(C)(=O)=O)C2)ccc1-c1cc(COc2cc3c(cn2)[C@H]2[C@@H](C3)[C@@H]2C(=O)O)c(F)cc1C(F)(F)F (some centres unmarked)
[C] Cc1cc(-c2ncn(CC(C)(C)O)n2)cc(C)c1-c1cc(COc2cc3c(cn2)[C@H]2[C@@H](C3)[C@@H]2C(=O)O)c(F)cc1F
Prompt: Order the items by recorded EC50; the first position goes to the largest value. Please, when replying, give the labels in the order that was requested.
Completion: B, A, C
(B: 2.1 nM, A: 1.2 nM, C: 0.8 nM)

----------
target: Human GPR40 (Homo sapiens); assay: Inositol Phosphate Turnover Assay 1 (HEK cells stably expressing human GPR40); assay type: cell-based; parameters: expressed in transfected cells; host or cells: HEK cells stably expressing the aequorin reporter; details: HEK cells stably expressing human GPR40, 96-well, 3H-inositol; read-out: Human GPR40 IP1 Assay 1, EC50
assay-endpoint: EC50 (nM)

CS(=O)(=O)N1CC2(CN(c3ccc(-c4cc(COc5cc6c(cn5)[C@H]5[C@@H](C6)[C@@H]5C(=O)O)c(F)cc4C(F)(F)F)c(F)c3)C2)C1 = 19

[1] C[C@]1(O)CC[C@H](Oc2c(F)cc(-c3cc(COc4cc5c(cn4)[C@H]4[C@@H](C5)[C@@H]4C(=O)O)c(F)cc3C(F)(F)F)cc2F)CC1
[2] CS(=O)(=O)c1ccc(-c2ccc(-c3cc(COc4cc5c(cn4)[C@H]4[C@@H](C5)[C@@H]4C(=O)O)c(F)cc3C(F)(F)F)cc2)cc1
Prompt: Lower value for measured EC50? Options: 1 , 2 Give the label of your selection.
Completion: 2
(2: 2.9 nM, 1: 14 nM)
